Target: human ferroportin (Homo sapiens, UniProt Q9NP59)
Construct: luciferase reporter (read with the Nano-Glo Luciferase Assay System); expressed in transfected cells; host or cells: CHO cells, stably transfected, expression induced with doxycycline
Experiment: Biological in-vitro ferroportin internalization assay (luciferase reporter)
Format: cell-based
Details: average pEC50; stably-transfected CHO cell line expressing human ferroportin tagged to a luciferase reporter; 6 h incubation with test compound
measurement-label: pEC50

1. CN(CC(=O)NC(C)(C)C)c1nc(-c2ccc(OCCO)cn2)nc2c1CCC2; 7.1
2. CN(CC(=O)NC(C)(C)C)c1nc(-c2cc(OCC3CC3)ccn2)nc2c1CCC2; 8.0
3. COCCOc1ccnc(-c2nc3c(c(N(C)CC(=O)NC(C)(C)C)n2)CCC3)c1; 7.8
4. COc1ccnc(-c2nc3c(c(N(C)CC(=O)N(C)C(C)(C)C)n2)CCC3)c1; 7.9

---

Molecular target: human ferroportin (Homo sapiens)
Construct: luciferase reporter (read with the Nano-Glo Luciferase Assay System); expressed in transfected cells; host or cells: CHO cells, stably transfected, expression induced with doxycycline
Sequence (Q9NP59 1-571): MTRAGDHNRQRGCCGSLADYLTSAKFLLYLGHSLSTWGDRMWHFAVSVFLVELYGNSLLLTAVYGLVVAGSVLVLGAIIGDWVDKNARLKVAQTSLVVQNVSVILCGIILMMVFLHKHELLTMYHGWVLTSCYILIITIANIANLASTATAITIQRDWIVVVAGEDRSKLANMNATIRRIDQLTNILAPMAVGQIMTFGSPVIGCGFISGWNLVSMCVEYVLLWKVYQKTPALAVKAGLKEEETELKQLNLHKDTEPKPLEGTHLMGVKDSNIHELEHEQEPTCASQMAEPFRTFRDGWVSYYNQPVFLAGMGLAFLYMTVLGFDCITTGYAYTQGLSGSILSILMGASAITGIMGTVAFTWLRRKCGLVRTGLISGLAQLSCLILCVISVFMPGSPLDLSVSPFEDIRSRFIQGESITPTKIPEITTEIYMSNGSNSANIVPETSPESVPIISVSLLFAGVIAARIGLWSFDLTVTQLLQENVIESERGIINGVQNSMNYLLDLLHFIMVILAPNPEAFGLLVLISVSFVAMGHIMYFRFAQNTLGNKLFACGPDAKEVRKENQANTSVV
Test: Biological in-vitro ferroportin internalization assay (luciferase reporter)
Format: cell-based
Details: average pEC50; stably-transfected CHO cell line expressing human ferroportin tagged to a luciferase reporter; 6 h incubation with test compound
measurement-label: pEC50

1. Cc1ccnc(-c2cc(N(C)CC(=O)NC(C)(C)C)c3c(n2)CCC3)c1; 7.2
2. COc1ccnc(-c2nc3c(c(N(C)CC(=O)N[C@@H](C)CO)n2)CCC3)c1; 7.3
3. CN(CC(=O)N1CCCC1(C)C)c1nc(-c2cc(OCCO)ccn2)nc2c1CCC2; 7.8
4. CN1CCC[C@H](Oc2ccnc(-c3nc4c(c(N(C)CC(=O)NC(C)(C)C)n3)CCC4)c2)C1; 7.9
5. CN(CC(=O)Nc1ccc(F)cc1)c1nc(-c2cc3cn(C)nc3cn2)nc2c1CCC2; 7.6
6. Cc1ccc(NC(=O)CN(C)c2nc(-c3cc4ccccc4cn3)nc3c2CCC3)cn1; 7.2
7. CC(C)NC(=O)CN(C)c1nc(-c2cc(OCCN(C)C)ccn2)nc2c1C(C)(C)CC2; 7.8
8. CN(CC(=O)Nc1cnn(C)c1)c1nc(-c2cn(C)cn2)nc2c1CCC2; 7

---

Molecular target: human ferroportin (Homo sapiens, UniProt Q9NP59)
Construct: luciferase reporter (read with the Nano-Glo Luciferase Assay System); expressed in transfected cells; host or cells: CHO cells, stably transfected, expression induced with doxycycline
Assay: Biological in-vitro ferroportin internalization assay (luciferase reporter)
Format: cell-based
Conditions: average pEC50; stably-transfected CHO cell line expressing human ferroportin tagged to a luciferase reporter; 6 h incubation with test compound
measurement-label: pEC50

1. CN(CC(=O)NC(C)(C)C)c1nc(-c2cc(OCCF)ccn2)nc2c1CCC2 [Compound 241]; 8
2. COc1ccnc(-c2nc3c(c(N(C)[C@H]4CCN(c5ccccc5)C4=O)n2)CCC3)c1 [Compound 205]; 7.5
3. Cc1cc(OCC(C)(C)O)cc(-c2nc3c(c(N(C)CC(=O)NC(C)(C)C)n2)CCC3)n1 [Compound 440]; 8
4. CNCCOc1ccnc(-c2nc3c(c(NCC(=O)NC(C)(C)C)n2)CCC3)c1 [Compound 485]; 7.1
5. CC1(C)CC[C@@H](Nc2nc(-c3ccccn3)nc3c2CCC3)C(=O)N1 [Compound 55]; 6.3
6. CN(C)CCOc1ccnc(-c2nc3c(c(N(CC(=O)NC(C)(C)C)CC(F)(F)F)n2)CCC3)c1 [Compound 470]; 7.2
7. CN(CC(=O)NC(C)(C)C)c1nc(-c2cncn2CCO)nc2c1CCC2 [Compound 196]; 5.6
8. Cc1cc(-c2nc3c(c(N(C)CC(=O)NC(C)(C)C)n2)CCC3)ncc1F [Compound 303]; 6.4
9. CN(CC(=O)NC(C)(C)C)c1nc(-c2ncccc2O)nc2c1CCC2 [Compound 181]; 6.5
10. Cc1cc(NC(=O)CN(C)c2nc(-c3cc(OCCO)ccn3)nc3c2CCC3)sn1 [Compound 350]; 7.7
11. CC(C)(C)NC(=O)CNc1nc(-c2ncccn2)nc2c1CCC2 [Compound 33]; 5.7
12. CN(CC(=O)NC(C)(C)C)c1nc(-c2cc3occc3cn2)nc2c1CCC2 [Compound 341]; 7.6
13. CN(CC(=O)N1CCCC1)c1nc(-c2cc(OCCO)ccn2)nc2c1CCC2 [Compound 354]; 7.7
14. CN(CC(=O)NC(C)(C)C)c1nc(-c2cc(OCCN3CC[C@@H](F)C3)ccn2)nc2c1CCC2 [Compound 473]; 8.3
15. COc1cccc(NC(=O)CN(C)c2nc(-c3cc(OCCO)ccn3)nc3c2CCC3)c1 [Compound 279]; 8.2
16. COc1ccnc(-c2nc3c(c(N(C)CC(=O)NCCO)n2)CCC3)c1 [Compound 133]; 7
17. CC(C)NC(=O)CN(C)c1nc(-c2cc(OCC(C)(C)O)ccn2)nc2c1CCC2(C)C [Compound 450]; 6.4
18. CN(CC(=O)NC(C)(C)C)c1nc(-c2cc(OCC3(O)CCCCC3)ccn2)nc2c1CCC2 [Compound 396]; 8.5
19. CN(c1nc(-c2ccccn2)nc2c1CCC2)[C@H]1CCN(C2(C)CCCC2)C1=O [Compound 207]; 7.2
20. C[C@H](O)COc1ccnc(-c2nc3c(c(N(C)CC(=O)NC(C)(C)C)n2)CCC3)c1 [Compound 370]; 8.2
21. C[C@H](CN(C)C)Oc1ccnc(-c2nc3c(c(N(C)CC(=O)NC4(C(F)(F)F)CC4)n2)CCC3)c1 [Compound 486]; 7.4
22. Cc1cncc(NC(=O)CN(C)c2nc(-c3cc4ccccc4cn3)nc3c2CCC3)c1 [Compound 235]; 7.5
23. CN(CC(=O)NC(C)(C)C)c1nc(-c2cc3cn(C)nc3cn2)nc2c1CCC2 [Compound 336]; 7.8
24. CN(CC(=O)Nc1ccc(F)nc1)c1nc(-c2cc3ccccc3cn2)nc2c1CCC2 [Compound 221]; 7
25. CN(CC(=O)Nc1ccccc1F)c1nc(-c2ccccn2)nc2c1CCC2 [Compound 22]; 7
26. CN(CC(=O)NC(C)(C)C)c1nc(-c2cc(OCC3(O)CCOCC3)ccn2)nc2c1CCC2 [Compound 405]; 8.3
27. COc1ccnc(-c2nc3c(c(N(C)Cc4nc(-c5ccccc5)co4)n2)CCC3)c1 [Compound 380]; 6.6
28. CC(=O)NCCOc1ccnc(-c2nc3c(c(N(C)CC(=O)NC(C)(C)C)n2)CCC3)c1 [Compound 369]; 7.7
29. CCc1ccnc(-c2nc3c(c(N(C)CC(=O)NC(C)(C)C)n2)CCC3)c1 [Compound 100]; 7.5
30. CN(CC(=O)NC(C)(C)C)c1nc(-c2cc(O)ccn2)nc2c1CCC2 [Compound 482]; 6.1
31. CCC(O)(CC)COc1ccnc(-c2nc3c(c(N(C)CC(=O)N[C@@H]4CCC[C@@H]4O)n2)CCC3)c1 [Compound 469]; 8.3
32. C[C@H](C(=O)Nc1cccc(F)c1)N(C)c1nc(-c2cc(OCCO)ccn2)nc2c1CCC2 [Compound 251]; 8.3
33. Cc1ccc(NC(=O)[C@@H](C)N(C)c2nc(-c3cc(OCCO)ccn3)nc3c2CCC3)cn1 [Compound 316]; 7.8

---

Target: human ferroportin (Homo sapiens, UniProt Q9NP59)
Construct: luciferase reporter (read with the Nano-Glo Luciferase Assay System); expressed in transfected cells; host or cells: CHO cells, stably transfected, expression induced with doxycycline
Assay: Biological in-vitro ferroportin internalization assay (luciferase reporter)
Format: cell-based
Settings: average pEC50; stably-transfected CHO cell line expressing human ferroportin tagged to a luciferase reporter; 6 h incubation with test compound
Description: The protocol for this assay is generally as described in WO2018/128828, incorporated herein by reference in its entirety. Functional internalization of ferroportin protein was measured using a stably-transfected CHO cell line expressing the human ferroportin tagged to a luciferase reporter. […] Cells were incubated with the test compounds for 6 h, and subsequently luciferase activity was measured using the Nano-Glo Luciferase Assay System and Glomax (Promega, Madison, Wis.). […]
measurement-label: pEC50

1) CSCC[C@H](C(=O)NC(C)(C)C)N(C)c1nc(-c2ccccn2)nc2c1CCC2 [Compound 116]; 7.4
2) Cc1cccc(-c2nc3c(c(N(C)CC(=O)NC(C)(C)C)n2)CCC3)n1 [Compound 59]; 6.8
3) C[C@@H](CN(C)C)Oc1ccnc(-c2nc3c(c(N(C)CC(=O)NC(C)(C)C)n2)CCC3)c1 [Compound 402]; 7.8
4) COc1ccc(NC(=O)CN(C)c2nc(-c3cc(OCCO)ccn3)nc3c2CCC3)cc1 [Compound 269]; 8.4
